TARGET UNDER TEST: SHP2 protein (Homo sapiens)
Sequence (Q06124 whole entry): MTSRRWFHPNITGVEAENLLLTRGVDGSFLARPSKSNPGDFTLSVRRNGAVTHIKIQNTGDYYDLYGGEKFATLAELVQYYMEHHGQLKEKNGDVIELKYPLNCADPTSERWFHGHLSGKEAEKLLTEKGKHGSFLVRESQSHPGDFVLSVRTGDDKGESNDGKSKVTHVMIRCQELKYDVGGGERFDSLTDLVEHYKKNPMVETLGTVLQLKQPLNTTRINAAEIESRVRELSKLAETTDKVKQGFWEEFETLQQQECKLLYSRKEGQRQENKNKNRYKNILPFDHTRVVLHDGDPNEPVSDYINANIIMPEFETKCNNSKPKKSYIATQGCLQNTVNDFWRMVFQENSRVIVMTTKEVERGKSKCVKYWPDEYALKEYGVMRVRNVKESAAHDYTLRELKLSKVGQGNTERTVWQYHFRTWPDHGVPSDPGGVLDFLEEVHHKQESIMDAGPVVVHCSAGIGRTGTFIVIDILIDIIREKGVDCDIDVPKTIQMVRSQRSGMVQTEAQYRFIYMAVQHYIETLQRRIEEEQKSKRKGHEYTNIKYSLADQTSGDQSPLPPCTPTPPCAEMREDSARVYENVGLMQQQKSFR
TEST NAME: Degradation activity on SHP2 protein in MIA Paca-2 cells (Western blot, DC50)
Assay type: cell-based
Parameters: endogenous in cells; host or cells: MIA Paca-2 cells
CONDITION: read-out: Degradation activity for differenct cell lines MIA Paca-2 (DC50)
Protocol: (1) MV-411 cells were cultured in the cell culture medium, and then well-growing cells were selected and inoculated in a 12-well plate, with 1 mL/well and 1×10^6 cells/well. The plate was incubated overnight in a 5% CO2 cell incubator at 37° C. (2) 10 mM storage solution of each drug was prepared using dimethylsulfoxide (DMSO). […] (3) After 24 hours of cultivation, the cells were lysed using RIPA cell lysate, and the proteins were extracted. The protein concentration was measured using a BCA assay kit. […]
For each entry below, report its DC50 value.

Task item: Suppose we examine the compound CC1(N)CCN(c2cnc(Sc3cccc(NC(=O)CCCCCCN4CC5(CC=C(c6ccc(C(=O)NCc7ccc8c(c7)CN(C7CCC(=O)NC7=O)C8=O)nn6)CC5)C4)c3)cn2)CC1 (stereo not shown) [Compound 207] ; what DC50 value has been reported?
Reply: < 100 nM

Task item: Entry under review: Cc1cc(C(=O)Nc2cccc(Sc3cnc(N4CCC(C)(N)CC4)cn3)c2)ccc1N1CCC(N2CCN(c3cnc(C(=O)NCc4ccc5c(c4)CN(C4CCC(=O)NC4=O)C5=O)cc3Cl)CC2)CC1 (stereo not shown) [Compound 495] . Reported DC50?
Reply: < 100 nM

Task item: Look up DC50: NC1(CO)CCN(c2cnc(Sc3cccc(NC(=O)c4ccc(N5CCC(N6CC=C(c7ccc(C(=O)NCc8ccc9c(c8)CN(C8CCC(=O)NC8=O)C9=O)nn7)CC6)CC5)cc4)c3)cn2)CC1 (stereo not shown) [Compound 375]
Reply: > 1000 nM

Task item: Please give the measured DC50 for this compound: CC1(N)CCN(c2cnc(Sc3cccc(NC(=O)CCCCCCCCN4C[C@@H]5C[C@H]4CN5c4ccc(C(=O)NCc5ccc6c(c5)CN(C5CCC(=O)NC5=O)C6=O)nn4)c3)cn2)CC1 (stereo partly shown) [Compound 237]
Reply: < 100 nM

Task item: What value of DC50 has been recorded for this entry: CC1(N)CCN(c2cnc(Sc3cccc(NC(=O)c4ccc(N5CCC(N6CC=C(c7ncc(C(=O)NCc8ccc9c(c8)CN(C8CCC(=O)NC8=O)C9=O)cn7)CC6)CC5)cc4)c3)cn2)CC1 (stereo not shown) [Compound 370]
Reply: 100 to 1000 nM

Task item: Entry C[C@@H]1CN(CCCCCCCCC(=O)Nc2cccc(Sc3cnc(N4CCC(C)(N)CC4)cn3)c2)CCN1c1ccc(C(=O)NCc2ccc3c(c2)CN(C2CCC(=O)NC2=O)C3=O)nn1 (stereo partly shown) [Compound 239] has what DC50?
Reply: < 100 nM

Task item: Given the entry CC1(N)CCN(c2cnc(Sc3cccc(NC(=O)c4ccc(N5CCC(N6CC=C(c7cnc(C(=O)NCc8ccc9c(c8)CN(C8CCC(=O)NC8=O)C9=O)cc7Cl)CC6)CC5)nc4)c3)cn2)CC1 (stereo not shown) [Compound 419] , report its measured DC50.
Reply: < 100 nM

Task item: Which DC50 value is on record for CC1(N)CCN(c2cnc(Sc3cccc(NC(=O)CCCCCCCOC4CCN(c5ncc(C(=O)NCc6ccc7c(c6)CN(C6CCC(=O)NC6=O)C7=O)cn5)CC4)c3)cn2)CC1 (stereo not shown) [Compound 79] ?
Reply: 100 to 1000 nM

Task item: Given COc1cc(C2=CCN(C3CCN(c4ccc(C(=O)Nc5cccc(Sc6cnc(N7CCC(C)(N)CC7)cn6)c5)cc4)CC3)CC2)ccc1C(=O)NCc1ccc2c(c1)CN(C1CCC(=O)NC1=O)C2=O (stereo not shown) [Compound 377] , state its recorded DC50.
Reply: < 100 nM

Task item: Give its DC50 value. Item: COc1nc(C2=CCN(C3CCN(c4ccc(C(=O)Nc5cccc(Sc6cnc(N7CCC(C)(N)CC7)cn6)c5)cc4)CC3)CC2)ccc1C(=O)NCc1ccc2c(c1)CN(C1CCC(=O)NC1=O)C2=O (stereo not shown) [Compound 338]
Reply: < 100 nM
